test system: rodent lifetime carcinogenesis bioassay, tumor incidence TD50; assay: carcinogenic potency in animals, long-term in vivo studies, CPDB compilation (AID 1745844); settings: mouse; strain B6C3F1; females; by gavage; site: all sites; lesion: malignant lymphoma, histiocytic type + malignant lymphoma, mixed type + malignant lymphoma, lymphocytic type + malignant lymph; dosed 88 weeks; study length 104 weeks
property_name: TD50 (mg/kg/day)
Answer in mg/kg/day, number only, no unit symbol.

Exercise: Could you tell me which TD50 is on file for `ClCC(Cl)CCl` ?
Key: 7.08

----------
system: rodent lifetime carcinogenesis bioassay, tumor incidence TD50; assay: carcinogenic potency in animals, long-term in vivo studies, CPDB compilation (AID 1745844); conditions: rat; strain Fischer 344; females; in drinking water; site: mammary gland; lesion: adenocarcinoma + adenoma + fibroadenoma; dosed 91 weeks; study length 93 weeks
property_name: TD50 (mg/kg/day)
Numbers only; they are read as mg/kg/day.

Exercise: Given the entry `COc1cc(-c2ccc(N)c(OC)c2)ccc1N` , report its measured TD50.
Key: 3.24

Data origin, for the record: PubChem BioAssay AID1745844
